Where do these numbers come from? They come from PubChem BioAssay (NCI).

test system: PC-3 prostate; experiment: NCI tumour cell line growth inhibition, 48 h
Assay endpoint: GI50

Worked cases, GI50 given:
C[C@@H]1COCCN1c1cc(C2(S(C)(=N)=O)CC2)nc(-c2ccnc3[nH]ccc23)n1 (some centres undefined) = 12.8 µM
CN(C)c1ccc2cc(-c3ccccc3F)c(N)nc2c1 = 2.21 µM
C#CC[C@@H]1C[C@]2(C)[C@H]3CC=C4[C@H]5CC(C)(C)CC[C@]5(C(=O)NCCCCN)CC[C@@]4(C)[C@]3(C)CC[C@H]2C(C)(C)[C@H]1OC(C)=O = 1.55 µM

Turning now to a further compound:
Reported GI50 for O=C1C(Cl)=C(Nc2cccc(O)c2)C(=O)N1c1cc(Cl)c(Cl)cc1Cl : what is it?
15.2 µM
